Ref: ChEMBL document CHEMBL6134832

Kindly state bioavailability for each of the entries shown.
testName: Oral bioavailability in mouse
Format: ADME, organism-based
protocolConditions: in vivo
Write the answer as a number in %, unit excluded.

Incoming: Can you share its bioavailability? I mean this compound: Cc1cncc(-n2c(=O)[nH]/c(=N\c3cc4cn(C)nc4cc3Cl)n(Cc3cc(C#N)ccc3Sc3ccc(Cl)s3)c2=O)c1
Outgoing: 93

Incoming: Can you share its bioavailability? I mean this compound: Cc1cncc(-n2c(=O)[nH]/c(=N\c3cc4cn(C)nc4cc3Cl)n(Cc3cc(Cl)c(F)cc3Oc3ccc(C#N)c(F)c3)c2=O)c1
Outgoing: 115

Incoming: Can you share its bioavailability? I mean this compound: Cc1ccc(C#N)cc1Cn1c(=O)n(-c2cncc(SC3CC3)c2)c(=O)[nH]/c1=N\c1cc2cn(C)nc2cc1Cl
Outgoing: 85

Incoming: Can you share its bioavailability? I mean this compound: Cn1cc2cc(/N=c3\[nH]c(=O)n(-c4cncc(O[C@H]5CCOC5)c4)c(=O)n3Cc3cc(Cl)c(F)cc3F)c(Cl)cc2n1
Outgoing: 87

---

testedSystem: CYP3A4/CYP3A5 (Homo sapiens, UniProt P08684+P20815)
testName: Inhibition of CYP3A4/CYP3A5 (unknown origin)
Kindly state IC50 for each of the entries shown.
Write the answer as a number in µM, unit excluded.

Incoming: Form field: IC50 recorded for Cc1ccc(C#N)cc1Cn1c(=O)n(-c2cncc(SC3CC3)c2)c(=O)[nH]/c1=N\c1cc2cn(C)nc2cc1Cl with CYP3A4/CYP3A5 (Homo sapiens, UniProt P08684+P20815) (enter value)
Outgoing: 7.88

Incoming: Form field: IC50 recorded for Cc1cncc(-n2c(=O)[nH]/c(=N\c3cc4cn(C)nc4cc3Cl)n(Cc3cc(Cl)c(F)cc3Oc3ccc(C#N)c(F)c3)c2=O)c1 with CYP3A4/CYP3A5 (Homo sapiens, UniProt P08684+P20815) (enter value)
Outgoing: 11.3

Incoming: Form field: IC50 recorded for Cc1cncc(-n2c(=O)[nH]/c(=N\c3cc4cn(C)nc4cc3Cl)n(Cc3cc(Cl)c(F)c(Oc4ccc(F)cc4)c3)c2=O)c1 with CYP3A4/CYP3A5 (Homo sapiens, UniProt P08684+P20815) (enter value)
Outgoing: 48.2

Incoming: Form field: IC50 recorded for Cc1cncc(-n2c(=O)[nH]/c(=N\c3cc4cn(C)nc4cc3Cl)n(Cc3cc(Cl)c(F)cc3Sc3cccc(F)c3)c2=O)c1 with CYP3A4/CYP3A5 (Homo sapiens, UniProt P08684+P20815) (enter value)
Outgoing: 30.7

Incoming: Form field: IC50 recorded for COc1cncc(-n2c(=O)[nH]/c(=N\c3cc4cn(C)nc4cc3Cl)n(Cc3cc(Cl)c(F)cc3Oc3ccc(F)cc3)c2=O)c1 with CYP3A4/CYP3A5 (Homo sapiens, UniProt P08684+P20815) (enter value)
Outgoing: 6.87

---

Kindly state CC50 at 72 h for each of the entries shown.
testName: Cytotoxicity against African green monkey Vero E6 cells assessed as cell viability measured after 72 hrs by Celltiter-glo luminescent cell viability assay
Format: toxicity, cell-based, Vero C1008
protocolConditions: chlorocebus sabaeus

Incoming: Can you share its CC50 at 72 h? I mean this compound: Cn1cc2cc(/N=c3\[nH]c(=O)n(-c4cncc(O[C@H]5CCOC5)c4)c(=O)n3Cc3cc(F)c(F)cc3F)c(Cl)cc2n1
Outgoing: > 100 µM

Incoming: Can you share its CC50 at 72 h? I mean this compound: COc1cncc(-n2c(=O)[nH]/c(=N\c3cc4cn(C)nc4cc3Cl)n(Cc3cc(Cl)c(F)cc3Oc3ccc(F)cc3)c2=O)c1
Outgoing: > 100 µM

Incoming: Can you share its CC50 at 72 h? I mean this compound: COc1cncc(-n2c(=O)[nH]/c(=N\c3cc4cn(C)nc4cc3Cl)n(Cc3cc(F)c(F)cc3F)c2=O)c1
Outgoing: > 100 µM

Incoming: Can you share its CC50 at 72 h? I mean this compound: Cn1cnc(Cn2c(=O)[nH]/c(=N\c3cc4cn(C)nc4cc3Cl)n(Cc3cc(F)c(F)cc3F)c2=O)n1
Outgoing: > 100 µM

Incoming: Can you share its CC50 at 72 h? I mean this compound: COCCOc1cncc(-n2c(=O)[nH]/c(=N\c3cc4cn(C)nc4cc3Cl)n(Cc3cc(Cl)c(F)cc3F)c2=O)c1
Outgoing: > 100 µM

Incoming: Can you share its CC50 at 72 h? I mean this compound: Cn1cc2cc(/N=c3\[nH]c(=O)n(-c4cccnc4)c(=O)n3Cc3cc(F)c(F)cc3F)c(Cl)cc2n1
Outgoing: > 100 µM

Incoming: Can you share its CC50 at 72 h? I mean this compound: Cc1cncc(-n2c(=O)[nH]/c(=N\c3cc4cn(C)nc4cc3Cl)n(Cc3cc(C#N)ccc3Sc3ccc(Cl)s3)c2=O)c1
Outgoing: > 100 µM

Incoming: Can you share its CC50 at 72 h? I mean this compound: Cn1cc2cc(/N=c3\[nH]c(=O)n(-c4cncc(O[C@H]5CCOC5)c4)c(=O)n3Cc3cc(Cl)c(F)cc3F)c(Cl)cc2n1
Outgoing: > 100 µM

Incoming: Can you share its CC50 at 72 h? I mean this compound: Cc1cncc(-n2c(=O)[nH]/c(=N\c3cc4cn(C)nc4cc3Cl)n(Cc3cc(Cl)c(F)cc3Oc3ccc(C#N)c(F)c3)c2=O)c1
Outgoing: > 100 µM

Incoming: Can you share its CC50 at 72 h? I mean this compound: Cc1ccc(C#N)cc1Cn1c(=O)n(-c2cncc(SC3CC3)c2)c(=O)[nH]/c1=N\c1cc2cn(C)nc2cc1Cl
Outgoing: > 100 µM

Incoming: Can you share its CC50 at 72 h? I mean this compound: Cc1cncc(-n2c(=O)[nH]/c(=N\c3cc4cn(C)nc4cc3Cl)n(Cc3cc(Cl)c(F)c(Oc4ccc(F)cc4)c3)c2=O)c1
Outgoing: > 100 µM

Incoming: Can you share its CC50 at 72 h? I mean this compound: Cc1cncc(-n2c(=O)[nH]/c(=N\c3cc4cn(C)nc4cc3Cl)n(Cc3cc(Cl)c(F)cc3Sc3cccc(F)c3)c2=O)c1
Outgoing: > 100 µM

Incoming: Can you share its CC50 at 72 h? I mean this compound: COCCOc1cncc(-n2c(=O)[nH]/c(=N\c3cc4cn(C)nc4cc3Cl)n(Cc3cc(C#N)ccc3C)c2=O)c1
Outgoing: > 100 µM
